# credit: patent USRE50528E1

# EXPERIMENTAL SYSTEM: EGFR mutant T790M (Homo sapiens, UniProt P00533, T790M)
# Construct: truncated human JAK3, EGFR mutants such as del E746-A750
# Sequence (P00533 669-1210 T790M limits assumed): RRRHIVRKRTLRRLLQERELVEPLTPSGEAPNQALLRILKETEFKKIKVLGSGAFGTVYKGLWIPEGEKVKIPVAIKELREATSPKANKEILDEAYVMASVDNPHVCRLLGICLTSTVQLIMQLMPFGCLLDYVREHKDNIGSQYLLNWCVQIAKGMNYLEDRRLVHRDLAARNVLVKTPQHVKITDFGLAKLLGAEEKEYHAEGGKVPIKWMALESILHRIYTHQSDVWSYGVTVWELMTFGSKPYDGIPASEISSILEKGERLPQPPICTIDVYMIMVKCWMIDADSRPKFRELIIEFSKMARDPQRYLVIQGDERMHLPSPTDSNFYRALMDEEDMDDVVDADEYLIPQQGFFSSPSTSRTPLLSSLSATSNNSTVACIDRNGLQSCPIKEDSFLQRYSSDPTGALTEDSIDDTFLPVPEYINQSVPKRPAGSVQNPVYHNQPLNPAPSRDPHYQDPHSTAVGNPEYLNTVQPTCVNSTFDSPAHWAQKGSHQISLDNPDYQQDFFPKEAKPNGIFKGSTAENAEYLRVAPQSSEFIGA
# ASSAY SUMMARY: Kinase inhibition assay, EGFR mutant T790M;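 further: truncated human EGFR mutant enzyme preincubated two hours with compound, then ATP plus ULight-PolyGT peptide for one hour, Europium-labeled antibody LANCE detection, IC50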
# MEASUREMENT SETUP: biochemical potency
# IC50 listing for each entry below

- COMPOUND: "Cc1cn(-c2ccnc(Nc3ccc(-c4ccccc4)c(C)c3)n2)cc1CN1CC(O)C1 [Compound 150, reference compound]"
  IC50: "> 1000 nM"
- COMPOUND: "C=CC(=O)Nc1cc(Nc2nccc(-n3cc(CN4CCC4)c(C4CC4)n3)n2)c(OC)cc1N(C)CCOC"
  IC50: "< 20 nM"
- COMPOUND: "C=CC(=O)Nc1cc(Nc2nccc(-n3cc(CN4CCC4)c(-c4ccccc4)n3)n2)c(OC)cc1N1CCCC1"
  IC50: "20 to 200 nM"
- COMPOUND: "C=CC(=O)Nc1cc(Nc2nccc(-n3cc(CN4CCC4)c(-c4cccs4)n3)n2)c(OC)cc1N1CCOCC1"
  IC50: "< 20 nM"
- COMPOUND: "C=CC(=O)Nc1cc(Nc2nccc(-n3cc(CN(C)C)c(-c4ccc(C)cc4)n3)n2)c(OC)cc1N1CCOCC1"
  IC50: "< 20 nM"
- COMPOUND: "C=CC(=O)Nc1cc(Nc2nccc(-n3cc(CN4C[C@H](O)[C@H](OC)C4)c(C)n3)n2)c(OC)cc1N1CCOCC1"
  IC50: "20 to 200 nM"
- COMPOUND: "CCC(=O)Nc1cc(Nc2nccc(-n3cc(CN4CCC4)c(-c4ccccc4)n3)n2)c(OC)cc1N1CCOCC1 [Compound 158, reference compound]"
  IC50: "> 1000 nM"
- COMPOUND: "C=CC(=O)Nc1cc(Nc2ncc(C)c(-n3cc(CN4C[C@H](O)[C@H](OC)C4)c(C)n3)n2)c(OC)cc1N1CCOCC1"
  IC50: "< 20 nM"
- COMPOUND: "C=CC(=O)Nc1cc(Nc2ncc(Cl)c(-n3cc(CN4CC(O)C4)c(C)n3)n2)c(OC)cc1N1CCOCC1"
  IC50: "< 20 nM"
- COMPOUND: "C=CC(=O)Nc1cc(Nc2nccc(-n3cc(CN(C)C)c(-c4ccccc4)n3)n2)c(OC)cc1N1CCC1"
  IC50: "< 20 nM"
- COMPOUND: "C=CC(=O)Nc1cc(Nc2ncc(C)c(-n3cc(CN4C[C@@H](O)[C@@H](O)C4)cn3)n2)c(OC)cc1N1CCOCC1"
  IC50: "< 20 nM"
- COMPOUND: "C=CC(=O)Nc1cc(Nc2nccc(-n3cc(CN(C)CC)c(C4CC4)n3)n2)c(OC)cc1N1CCOCC1"
  IC50: "< 20 nM"
- COMPOUND: "C=CC(=O)Nc1cc(Nc2ncc(C)c(-n3cc(CN4CC[C@H](O)C4)c(C)n3)n2)c(OC)cc1N1CCOCC1"
  IC50: "< 20 nM"
- COMPOUND: "C=CC(=O)Nc1cc(Nc2ncc(F)c(-n3cc(CN4CCC4)c(-c4ccoc4)c3)n2)c(OC)cc1N1CCOCC1"
  IC50: "< 20 nM"
- COMPOUND: "C=CC(=O)Nc1cc(Nc2ncc(C)c(-n3cc(CN(C)C)c(C4CC4)n3)n2)c(OC)cc1N(C)C1COC1"
  IC50: "< 20 nM"
